Source: the supplement of paper PMC9170038

# System: MS2 coat protein
# measurement.description: apparent KD of MS2 coat protein; designed switch direction (-1 OFF switch, 1 ON switch): 1; higher = weaker reporter binding
# stated.conditions: input ligand: microRNA oligo, concentration not stated
apparent KD of MS2 coat protein for assorted sequences

| seq | apparent KD of MS2 coat protein |
| --- | --- |
| ACAUGAGAGAUAGGAUAUCGUGUACCUACAUGUGACAUGAGGAUCACCCAUGUGGUAAGUAUGAGCGAGAAGGAUCAGAUAUGU [Equivalence 50 - Jieux - Same State NG 2] (Eterna round: R96, puzzle: Same State NG 2) | 43.1 nM |
| UUAAUGAUGUAAGGAUAUACAUGAGGAUUUCUCGUAGAAGGUACAAGACAUGAGGAUCACCCAUGUGUCGCUCCGUAGAGCGUA [JL SSNG1 1.09] (Eterna round: R96, puzzle: Same State NG 1) | 132 nM |
| AGUCCAGCCUGAGCUGGACAAAAGCAUGUACAUGAGGAUCACCCAUGUUCAUGUGCAAGCUUUUUGCUCGUCUUAAA [Zipper 52 - 4] (Eterna round: R96, puzzle: Sensor for hsa-mir-208a) | 10.7 nM |
| GGUGCCAAUAAAGCCUACAUGAGGAUCACCCAUGUAUGUAGGCAGGAUAUCGUUUGCAAAGCAAACGAGAAGGGCCUAGGCACC [Mat - Same State NG 3 - JL Mod - D61] (Eterna round: R96, puzzle: Same State NG 3) | 21.4 nM |
